Origin of values: patent US20260028417A1

study-system: T1, human HER3 protein (extracellular sequence with six histidines at the C-terminal) (human, UniProt P21860 20-643)
T1 construct: extracellular domain; Made in HEK293 cells; also called Human HER3-His
T1 sequence (P21860 other isoform, or with tags, fused parts or gaps): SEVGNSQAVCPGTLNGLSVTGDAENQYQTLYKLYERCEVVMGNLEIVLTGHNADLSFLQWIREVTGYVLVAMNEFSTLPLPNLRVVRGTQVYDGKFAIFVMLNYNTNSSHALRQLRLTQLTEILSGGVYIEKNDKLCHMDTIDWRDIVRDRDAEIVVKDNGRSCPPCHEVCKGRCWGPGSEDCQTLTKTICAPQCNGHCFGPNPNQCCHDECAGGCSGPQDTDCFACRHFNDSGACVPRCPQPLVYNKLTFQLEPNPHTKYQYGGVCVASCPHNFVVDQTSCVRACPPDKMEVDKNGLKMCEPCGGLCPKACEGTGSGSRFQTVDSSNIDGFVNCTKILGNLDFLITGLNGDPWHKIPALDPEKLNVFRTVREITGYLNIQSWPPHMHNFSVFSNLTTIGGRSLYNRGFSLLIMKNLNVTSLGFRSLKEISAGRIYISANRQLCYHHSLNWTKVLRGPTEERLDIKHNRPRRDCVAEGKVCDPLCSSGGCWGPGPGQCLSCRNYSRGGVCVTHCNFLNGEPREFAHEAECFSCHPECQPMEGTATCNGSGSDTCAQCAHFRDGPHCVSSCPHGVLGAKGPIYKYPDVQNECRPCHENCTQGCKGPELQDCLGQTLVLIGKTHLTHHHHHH
test-method-notes: ELISA, coated human HER3 protein, chimeric antibody
Description: The plate was washed 5 times with PBST (0.2% Tween-20). After the plate was dried, 100 μl of TMB (CoWin Biotech) chromogenic substrate was added to each well, reacted at room temperature for 3-5 minutes; 50 μl of 2N H₂SO₄ was added to each well to stop the chromogenic reaction, and absorbance value at OD450 nm was read with a microplate reader. […]
assay-endpoint: EC50 (ng/mL)
Just the number please, in ng/mL, no unit attached.

Request: Query EC50 for 22B6D2 (anti-human HER3 chimeric antibody) (antibody, V domains shown, detected with anti-Rat IgG) VH: EVHLVESGGGVVQPGRSLRLSCATSGFTFRSYGMHWVRQAPGKGLEWVAVIWYDGSNKYYADSVKGRFTISRDISKNTLYLQMNSLTAEDTAVYYCARYYYDSNGYYDAFDIWGQGTMVTVSS VL: DIQLTQSPSFLSASVGDRVTITCRASQGISNYLAWYQQKPGKAPKLLIFAASTLQSGVPSRFSGSGSGAEFTLTISSLEPEDFATYYCQQLNSYPITFGQGTRLEIK
Response: 5.4
